HCT-15 data, read-out log10(GI50)
The common logarithm of GI50 in µM is what is listed.

Observe how each entry below is paired with its result.
C=CCC1(C#N)C(=S)NC2=C(C(=O)CC(C)(C)C2)C1c1ccccc1 (stereo not given) | 1.85
C[C@]12CC[C@H]3[C@@H](CCC4=CC(=O)CC[C@@H]43)[C@@H]1CC[C@@H]2OC1(O)C(=O)c2ccccc2C1=O | 1.58
CCOC(=O)c1cc(C2(O)CCN(Cc3ccccc3)C2=O)c(-c2cc(C)no2)[nH]1 (stereo not given) | 1.85
CC(/C=C/C(=O)c1sc(-n2nc(-c3ccccc3)cc2-c2ccccc2)nc1C)=C\c1ccccc1 | 1.28
O=Cc1cccc2c1Oc1c(cccc1C(=O)O)S2 | 1.55

Exercise: // returns reported log10(GI50) for input Cc1c2c(C(N)=O)nccc2c(C)c2c1c1ccccc1n2Cc1ccccc1
Key: 1.20

Exercise: For CC1OC(OC2CC(O)(C(=O)CO)Cc3c(O)c4c(c(O)c32)C(=O)c2ccccc2C4=O)CC(N)C1O (stereo not given) , what is its reported log10(GI50)?
Key: -1.15

Exercise: Record request: log10(GI50) value, item Nc1nc(-c2ccccc2/N=N/N2CCCC2)nc2ccccc12
Key: 0.43

Exercise: What does the data say about its log10(GI50)? Entry: Cc1nc(-n2nc(-c3ccccc3)cc2-c2ccccc2)sc1C(=O)CC(=O)C(=O)Nc1ccc(Cl)c(Cl)c1
Key: 1.75
